Where do the numbers come from? From ChEMBL document CHEMBL1201862.

# Test system: KM12
# methodSummary: NCI tumour cell line growth inhibition, 48 h
Calls of active or inactive are those of the source. Rule as the data show it: active = GI50 up to about 1.1 µM and inactive = higher.
Labels: YES (active), NO (inactive)

| molecule | groupLabel |
| --- | --- |
| O=S(=O)(/N=C(\NO)Nc1ccc(Cl)cc1)C1CC=C(c2ccon2)S1 (stereo not given) | NO |
| COC(=O)c1cc2c3c(cc(NCCN)c2[nH]1)N(C(=O)c1cc2cc(OC)c(OC)c(OC)c2[nH]1)CC3CCl (stereo not given) | YES |
| CC(Cl)(CCC(Cl)C(C)(C)Cl)C(=O)CBr (stereo not given) | NO |
| CC[C@@]1(O)C(=O)OCc2c1cc1n(c2=O)Cc2cc3c(N)cccc3nc2-1 | YES |
| N#CSc1ccc(S(N)(=O)=O)cc1 | NO |

====

# Test system: RXF 393
# methodSummary: NCI tumour cell line growth inhibition, 48 h
Active and inactive are the calls of the source. No stated cut-off is given here; in the data, active = GI50 up to about 1.1 µM and inactive = higher.
Possible outcomes: active, inactive

| molecule | measuredOn | groupLabel |
| --- | --- | --- |
| CCC(C)CNC1=C(NC(C)=O)C(=O)c2ccccc2C1=O (stereo unspecified) | RXF 393 | inactive |
| C/C=C(/CCC1NCCC2c3ccccc3NC12)[Si](C)(C)C (stereo unspecified) | RXF 393 | inactive |
| COC(=O)c1ccccc1CC1Cc2c(C)ccc(C)c2C1=O (stereo unspecified) | RXF 393 | inactive |
| CCOc1cc(-c2nc3cc(F)ccc3s2)ccc1O | RXF 393 | inactive |
| OC1CCSc2ccccc21 (stereo unspecified) | RXF 393 | inactive |
| CC(=O)O/N=C/c1ncccc1CO | RXF 393 | inactive |
| Cc1cn(C2CCN(CC3COC(C)(C)O3)O2)c(=O)[nH]c1=O (stereo unspecified) | RXF 393 | inactive |
| COc1cc(C2S/C(=C/c3ccccc3)C(=O)N2c2cccc(NC(C)=O)c2)cc(OC)c1OC (stereo unspecified) | RXF 393 | inactive |
| COC(=O)[C@]12CCC(C)(C)C[C@H]1[C@H]1C(=O)C=C3[C@@]4(C)C=C(C#N)C(=O)C(C)(C)[C@@H]4CC[C@@]3(C)[C@]1(C)CC2 | RXF 393 | active |
| O=C(O)C1=C(CO)Oc2cc3c(cc2C1c1ccc2c(c1)OCO2)OCO3 (stereo unspecified) | RXF 393 | inactive |
| Cc1nc(N2N=C(c3ccc(Cl)cc3)CCC2=O)sc1[N+](=O)[O-] | RXF 393 | inactive |

====

# Tested on: KM12
# methodSummary: NCI tumour cell line growth inhibition, 48 h
Active and inactive are the calls of the source. Cut-off read from the data, not from the text of the source: active = GI50 up to about 1.1 µM and inactive = higher. Square brackets hold non-standard residues; d marks the D form. Peptide text beside a SMILES is read from it. ξ: configuration not given here. ξ2Thi = NC(Cc1cccs1)C(=O)O; ξR = N=C(N)NCCCC(N)C(=O)O; ξI = CCC(C)C(N)C(=O)O; ξL = CC(C)CC(N)C(=O)O; ξK = NCCCCC(N)C(=O)O; ξT = CC(O)C(N)C(=O)O; ξA = CC(N)C(=O)O
Outcomes: 1 (yes) for active, 0 (no) for inactive

| compound | measuredOn | groupLabel |
| --- | --- | --- |
| Cc1ccc(Nc2nnc3n2S(=O)(=O)c2cc(C)c(Cl)cc2S3)cc1 | KM12 | 0 (no) |
| CCC(C)C(NC(=O)C(Cc1cccs1)NC(=O)C(CC(C)C)NC(=O)C(CC(C)C)NC(=O)C(CCCCN)NC(=O)C(CCCN=C(N)N)NC(=O)[C@H](Cc1ccc(O)cc1)NC(=O)C(NC(=O)C(C)NC(=O)C(N)CC(C)C)C(C)O)C(=O)NC(CC(C)C)C(N)=O (stereo not given in full) (H-[ξL][ξA][ξT]Y[ξR][ξK][ξL][ξL][ξ2Thi][ξI][ξL]-NH2) | KM12 | 0 (no) |
| Clc1ccc(/C(=C/c2ccccc2)Cn2ccnc2)cc1 | KM12 | 0 (no) |
| CCCCCC/C=C\CCCCCCCCCC1=C(CN2CCN(C)CC2)C(=O)C=C(OC)C1=O | KM12 | 0 (no) |
| CC(=O)O/N=C/c1ncccc1CO | KM12 | 0 (no) |
| CN(C)c1ccc(/C=C/c2ccnc3ccccc23)cc1N | KM12 | 0 (no) |
| COc1cc2nc(NCCCCCNC(=O)c3ccco3)nc(N)c2cc1OC | KM12 | 0 (no) |
| COc1ccc(C(=O)C(C(=O)CCC(=O)Nc2ccc(C)c(C)c2)c2ccc(OC)cc2)cc1 (stereo not given) | KM12 | 0 (no) |
| O=C(Nc1ccc(Cl)cc1)C(=O)C(C(=O)c1ccccc1-c1ccccc1)C1OC(=O)c2ccccc21 (stereo not given) | KM12 | 0 (no) |
| COc1ccc(C[C@H]2NC[C@H](OC(C)=O)[C@H]2OC(C)=O)cc1 | KM12 | 1 (yes) |
| CC(c1ccccc1)/[N+]([O-])=C/c1ccccc1 (stereo not given) | KM12 | 0 (no) |
| Cc1nnc([C@@]2(C)CC[C@H]3[C@@H](CC=C4C[C@@H](O)CC[C@@]43C)[C@@H]2CC#N)o1 | KM12 | 0 (no) |
| NC(=O)C1=CC2C3C=CC2(O)C(=O)OC3O1 (stereo not given) | KM12 | 0 (no) |
| CC1(C)OC2CC3COC(=O)C3CC2O1 (stereo not given) | KM12 | 0 (no) |
| OCC(O)C(O)C(O)C(O)c1nnn[nH]1 (stereo not given) | KM12 | 0 (no) |
| Cc1ccc2c(/C=C/c3ccc(N(C)C)cc3)ccc(C(C)C)cc1-2 | KM12 | 0 (no) |
| N#C[BH2-][n+]1ccc(C(=O)NNCC(F)(F)F)cc1 | KM12 | 0 (no) |
| COC1=C(C)C(=O)c2c(cc3c(c2O)C(C)(CCC=C(C)C)C(C)O3)C1=O (stereo not given) | KM12 | 0 (no) |
| Cn1c(=O)sc2cc(C(=S)N3CCN(c4ccccc4)CC3)ccc21 | KM12 | 0 (no) |
| CCOC(=O)[C@@H]1ON2OC(OC3CCCC3(c3ccccc3)c3ccccc3)C(OC(C)=O)[C@H]3OC(=O)[C@@H]1C32 (stereo not given in full) | KM12 | 0 (no) |
| C[C@]12C=CC(=O)C=C1[C@@H](F)C[C@H]1[C@@H]3CC[C@](O)(C(=O)CO)[C@@]3(C)C[C@H](O)[C@@]12F | KM12 | 0 (no) |
| CC1(C)C2CCC13C(=O)C1OC3(C2)C2C(=O)N(c3ccccc3)C(=O)C12 (stereo not given) | KM12 | 0 (no) |
| COC(=O)C1(Cc2ccc3c(c2)CCC3)Cc2ccc3c(c2C1=O)CCC3 (stereo not given) | KM12 | 0 (no) |
| COc1cc(Nc2cnc3ccc(N)cc3n2)cc(OC)c1OC | KM12 | 0 (no) |
| OCC1CCCCCCCCCCC12SCCCS2 (stereo not given) | KM12 | 0 (no) |
| c1ccc2c(c1)N=C(NC1CCCCC1)CCN2 | KM12 | 0 (no) |
| OC1(c2ccc(Cl)cc2)c2ccccc2C2=NCc3ccccc3CN21 (stereo not given) | KM12 | 0 (no) |
| CC1=NN(c2ccccc2)C(=O)/C1=C1\SC(c2ccccc2)(c2ccccc2)c2ccccc21 | KM12 | 0 (no) |
| CN1C(=O)CN(NC(=O)C2=C(O)c3ccc(Br)cc3S(=O)(=O)N2)C1=S | KM12 | 0 (no) |
| COC(=O)[C@]12CCC(C)(C)C[C@H]1[C@H]1C(=O)C=C3[C@@]4(C)C=C(C#N)C(=O)C(C)(C)[C@@H]4CC[C@@]3(C)[C@]1(C)CC2 [BARDOXOLONE METHYL] | KM12 | 1 (yes) |
| CCN(CC)c1ccc2cc(-c3nc(O)c4ccccc4n3)c(=N)oc2c1 | KM12 | 0 (no) |
| N#Cc1ccc(-c2nc3cc(Cl)ccc3[nH]2)cc1 | KM12 | 0 (no) |
| [O-][S+](Nc1ccccc1)c1ccc(Cl)c(Cl)c1 (stereo not given) | KM12 | 0 (no) |
| CCOC(=O)/C=C(/C(=O)OCC)n1ccc(N)nc1=O | KM12 | 0 (no) |
| COC(=O)C1=C(C[S+]([O-])c2ccc([N+](=O)[O-])cc2[N+](=O)[O-])ON(C)C1c1ccccc1 (stereo not given) | KM12 | 0 (no) |
| NC1NCCC(=O)N1CCc1c[nH]c2ccccc12 (stereo not given) | KM12 | 0 (no) |
| CCC(CON(C)c1ccccc1)(SC)SC | KM12 | 0 (no) |
| CCOc1cc(-c2nc3cc(F)ccc3s2)ccc1O | KM12 | 0 (no) |
| O=C1OC(=O)C(=C\c2ccc3c(c2)OCO3)/C1=C/c1ccc2c(c1)OCO2 | KM12 | 0 (no) |
| Nc1ncnc2c1ccn2CC=C(CO)CO | KM12 | 0 (no) |
